- Target Or System: 11β-HSD1 (Homo sapiens, UniProt P28845)
- Sequence (P28845 whole entry): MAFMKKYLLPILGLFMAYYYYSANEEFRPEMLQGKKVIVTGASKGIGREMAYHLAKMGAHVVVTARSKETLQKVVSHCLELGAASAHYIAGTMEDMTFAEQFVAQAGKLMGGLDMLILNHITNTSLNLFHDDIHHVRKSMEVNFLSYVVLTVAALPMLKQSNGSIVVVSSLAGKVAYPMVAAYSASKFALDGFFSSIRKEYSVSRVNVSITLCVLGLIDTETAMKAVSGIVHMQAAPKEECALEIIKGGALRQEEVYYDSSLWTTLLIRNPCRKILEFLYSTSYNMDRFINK
- Method Description: Biological Test Example 4: microsomal 11β-HSD1 in the presence of 50% human plasma
pIC50: −log10 of the molar value.
Short version: pIC50 at least 8 is 1, less is 0.

>>> class_assignment("Cc1cc(-c2ccc([C@H](C)N3CC[C@@](C)(c4ccc(F)cc4)OC3=O)cc2)ccn1 (single isomer, unassigned)")
0
>>> class_assignment("Cc1ccc(-c2ccc([C@H](C)N3CC[C@](CC(C)(C)C#N)(c4ccccc4)OC3=O)cc2)nn1")
1
>>> class_assignment("Cc1cc(-c2ccc([C@H](C)N3CC[C@](CCCO)(c4ccc(F)cc4)OC3=O)cc2)nc(C)n1")
0

Next compound, please.
Exam item: # check: pIC50 of `Cc1cc(-c2ccc([C@H](C)N3CC[C@](CCC(N)=O)(c4ccc(F)cc4)OC3=O)cc2)ccn1` is greater than or equal to 8
Marked response: 0

----------
- Target Or System: 11β-HSD1 (Homo sapiens, UniProt P28845)
- Method Description: biochemical
- Details: read-out: Average % inhibition at 100 nM
Listed below: inhibition at 0.1 µM values for each entry.
Write the number in % without appending the unit.

The following compounds have reported results that may help.
>>> measured_result("Cc1nccn1-c1ncc(-c2ccc([C@H](C)N3CC[C@](CC(C)(C)O)(c4ccccc4)OC3=O)cc2)cn1 [EXAMPLE 27]")
96.8
>>> measured_result("Cc1cc(-c2ccc([C@H](C)N3CC[C@](CC(C)(C)O)(c4ccc(F)cc4)OC3=O)cc2)cc(C)[n+]1[O-] [EXAMPLE 123]")
93.6
>>> measured_result("C[C@@H](c1ccc(-c2nc(C(=O)NC3CC3)cs2)cc1)N1CC[C@](CC(C)(C)O)(c2ccccc2)OC1=O [EXAMPLE 19]")
94.6
>>> measured_result("C[C@@H](c1ccc(-c2ccc[n+]([O-])c2)cc1)N1CC[C@](CCC(N)=O)(c2ccc(F)cc2)OC1=O [EXAMPLE 68]")
50
>>> measured_result("C[C@@H](c1ccc(-c2cccnc2)cc1)N1CC[C@](CCNS(C)(=O)=O)(c2ccccc2)OC1=O [EXAMPLE 55]")
96.5
>>> measured_result("C=CC[C@]1(c2ccc(F)cc2)CCN([C@@H](C)c2ccc(-c3cncc(F)c3)cc2)C(=O)O1 [EXAMPLE 51]")
96.1
>>> measured_result("C[C@@H](c1ccc(-c2ccc(C(=O)N(C)C)cn2)cc1)N1CC[C@](CC(C)(C)O)(c2ccccc2)OC1=O [EXAMPLE 156]")
96.4
>>> measured_result("C[C@@H](c1ccc(-c2ccc(C#N)cn2)cc1)N1CC[C@](CCCO)(c2ccccc2)OC1=O [EXAMPLE 110]")
93.9
>>> measured_result("Cc1cc(-c2ccc([C@H](C)N3CC[C@](CC(C)(C)O)(c4ccc(F)cc4)OC3=O)cc2)ccn1 [EXAMPLE 76]")
98.7
>>> measured_result("C[C@@H](c1ccc(-c2ccncn2)cc1)N1CC[C@](CCCO)(c2ccc(F)cc2)OC1=O [EXAMPLE 128]")
96.5

Now let's try a different one.
Exam item: Form field: reported inhibition at 0.1 µM of CC(C)[C@@]1(CC(C)(C)O)CCN([C@@H](C)c2ccc(-c3cnc(C(=O)NC4CC4)nc3)cc2)C(=O)O1 [EXAMPLE 199]
Marked response: 62.9
